test system: CCRIS mutagenicity, Ames/micronucleus/aberration tests; experiment: CCRIS mutagenicity studies; conditions: Test System: AMES SALMONELLA TYPHIMURIUM; Strain/Indicator: TA100; Metabolic Activation: RAT LIVER S-9, AROCLOR 1254; Method: STANDARD PLATE
The source made the active and inactive calls. The rule behind the calls is not given here.
Observation Type: mutagenic call

Here are 6 compounds together with their reported answers.
smiles=O=S(=O)(O)c1ccc(N=Nc2c(O)ccc3ccccc23)cc1 observed="inactive; negative"
smiles=Cl[Si](Cl)(Cl)Cl observed="inactive; negative"
smiles=COc1cc(S(=O)(=O)O)c(C)cc1N=Nc1c(O)ccc2cc(S(=O)(=O)O)ccc12 observed="inactive; negative"
smiles=COC1=CC(=O)c2c(nc(C)c3c2[nH]c2ccccc23)C1=O observed="active; positive"
smiles=Cc1ccc(N=Nc2c(O)c(C(=O)O)cc3ccccc23)c(S(=O)(=O)O)c1 observed="inactive; negative"
smiles=CCO[Si](C)(C)OCC observed="inactive; negative"

Q: Need mutagenic call of Cc1cc(C)c(C)cc1C , thanks.
Result: inactive; negative

Q: Need mutagenic call of COC1=CC(=O)c2c(ncc3c2[nH]c2ccncc23)C1=O , thanks.
Result: active; positive
